Entry source: the supplement of paper PMC11246515

Experiment: total protein half-life in vivo (active degradation + dilution); higher = more stable protein
Details: wild type E. coli NCM3722; growth: C-lim chemostat; doubling time 6 h
measured_metric: total protein half-life in vivo
# do not omit the unit; it follows the number

total protein half-life in vivo recorded for this sequence, "MSSEKLYSPLKVGAITAANRIFMAPLTRLRSIEPGDIPTPLMAEYYRQRASAGLIISEATQISAQAKGYAGAPGIHSPEQIAAWKKITAGVHAENGHMAVQLWHTGRISHASLQPGGQAPVAPSALSAGTRTSLRDENGQAIRVETSMPRALELEEIPGIVNDFRQAIANAREAGFDLVELHSAHGYLLHQFLSPSSNHRTDQYGGSVENRARLVLEVVDAGIEEWGADRIGIRVSPIGTFQNTDNGPNEEADALYLIEQLGKRGIAYLHMSEPDWAGGEPYTDAFREKVRARFHGPIIGAGAYTVEKAETLIGKGLIDAVAFGRDWIANPDLVARLQRKAELNPQRAESFYGGGAEGYTDYPTL" , is 2.98 h

total protein half-life in vivo recorded for this sequence, "MLYIFRLIITVIYSILVCVFGSIYCLFSPRNPKHVATFGHMFGRLAPLFGLKVECRKPTDAESYGNAIYIANHQNNYDMVTASNIVQPPTVTVGKKSLLWIPFFGQLYWLTGNLLIDRNNRTKAHGTIAEVVNHFKKRRISIWMFPEGTRSRGRGLLPFKTGAFHAAIAAGVPIIPVCVSTTSNKINLNRLHNGLVIVEMLPPIDVSQYGKDQVRELAAHCRSIMEQKIAELDKEVAEREAAGKV" , is 6.42 h

Consider now this further sequence.
total protein half-life in vivo recorded for this sequence, MQKEQLSALMDGETLDSELLNELAHNPEMQKTWESYHLIRDSMRGDTPEVLHFDISSRVMAAIEEEPVRQPATLIPEAQPAPHQWQKMPFWQKVRPWAAQLTQMGVAACVSLAVIVGVQHYNGQSETSQQPETPVFNTLPMMGKASPVSLGVPSEATANNGQQQQVQEQRRRINAMLQDYELQRRLHSEQLQFEQAQTQQAAVQVPGIQTLGTQSQ [P0AFX7] , is 0.455 h
